Measured values drawn from patent US20240141038A1 for this set.

Study Target: T1, Cynomolgus monkey NKp46 for immunization, screening, and testing (Kactus, NKP-CM146) (cynomolgus monkey, UniProt Q95JB9 22-254)
T1 construct: Bought protein; also called monkey NKp46 antigen protein; cynomolgus monkey NKp46 antigen
T1 sequence (Q95JB9 other isoform, or with tags, fused parts or gaps limits assumed): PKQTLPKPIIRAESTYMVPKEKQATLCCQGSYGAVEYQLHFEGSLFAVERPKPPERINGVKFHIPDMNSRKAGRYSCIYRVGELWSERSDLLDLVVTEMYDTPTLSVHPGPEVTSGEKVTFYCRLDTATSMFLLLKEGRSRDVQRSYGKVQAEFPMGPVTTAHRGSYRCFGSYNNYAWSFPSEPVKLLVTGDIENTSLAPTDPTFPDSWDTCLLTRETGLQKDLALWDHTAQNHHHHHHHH
Assay Details: ELISA, coated antigen, VHH supernatant, anti-Myc HRP
Property Label: OD450

{"Binder": "NKp46-PA15 VHH (his and c-Myc labels) (VHH, IPTG-induced E. coli supernatant used in the screening ELISA; also called NKp46-PA15 clone supernatant; not shown: his and c-Myc labels) VHH: QVQLVESGGGLVQAGDSLRVSCAASGRTFSTYAMGWFRQAPGKEREFVAASSRDGTTTYYADSVKGRFTISRDNAKNTVYLQMNSLKPEDTAVYYCAASRPLSTTQVGIASAWYEYWGQGTQVTVSS", "OD450": "> 1"}

Proceeding to the next binder to report its OD450.
Form: binder = NKp46-PC1 VHH (his and c-Myc labels) (VHH, IPTG-induced E. coli supernatant used in the screening ELISA; also called NKp46-PC1 clone supernatant; not shown: his and c-Myc labels) VHH: QVQLVESGGGSVQAGGSLTLSCATSGYTYRTDCMGWFRQAPGKEREGLATIYTSDGRTDYANSVKGRFTISQDNAKNTLYLHMNNLKPEDTAIYYCAADPQYGGVCPSGGWNYWGQGTQVTVSS ; OD450 = > 1
